B1: HDV Ribozyme (parent)
chain: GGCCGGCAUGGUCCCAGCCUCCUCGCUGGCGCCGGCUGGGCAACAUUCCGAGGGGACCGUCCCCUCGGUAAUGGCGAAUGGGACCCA

- Variants of: B1
- test.protocol: self-cleavage, relative activity (ratio to wild type); higher = more cleavage; co-transcriptional
Threshold check on self-cleavage: at or above 0.5 gives condition met, strictly below gives condition not met.

mut	assigned.category
G5U C18A	condition not met
A8C G68C	condition met
G54U U69A	condition met
C44U C84A	condition met
C22A G81A	condition not met
C24U A87G	condition met
G2U G5A	condition not met
G2A C4A	condition not met
G74A C86A	condition met
C33A G34U	condition not met

Value source: the RNAGym collection of RNA variant scans (doi:10.7554/elife.80360)
